# method notes: Hydrodynamic diameter and colloidal stability of aggregates by dynamic light scattering
# Format: physicochemical
# measurement parameters: 3.75 μM in PBS from DMSO stock, 37 °C
Binary call on zeta potential with cut-off -10 mV: strictly below means Satisfied, and equality or higher means Not satisfied.

1) COc1ccc2[nH]cc(CCNC(=O)CNC(=O)CCC(=O)OC/C(C)=C/C=C/C(C)=C/C=C/C=C(C)/C=C/C=C(C)/C=C/C3=C(C)CCCC3(C)C)c2c1 [Compound 18, 8′-Apo-β-carotenol-melatonin conjugate] : Satisfied
2) COc1ccc2[nH]cc(CCNC(=O)CNC(=O)CCC(=O)O[C@@H]3CC(C)=C(/C=C/C(C)=C/C=C/C(C)=C/C=C/C=C(C)/C=C/C=C(C)/C=C/C4=C(C)CCCC4(C)C)C(C)(C)C3)c2c1 [Compound 15, Cryptoxanthin-melatonin conjugate] : Satisfied
3) COc1ccc2[nH]cc(CCNC(=O)CNC(=O)CCC(=O)O[C@@H]3CC(C)=C(/C=C/C(C)=C/C=C/C(C)=C/C=C/C=C(C)/C=C/C=C(C)/C=C/C4=C(C)C[C@@H](O)CC4(C)C)C(C)(C)C3)c2c1 [Compound 13, Zeaxanthin-monomelatonin conjugate] : Not satisfied
4) CC1=C(/C=C/C(C)=C/C=C/C(C)=C/C=C/C=C(C)/C=C/C=C(C)/C=C/C2=C(C)C[C@@H](OC(=O)CCC(=O)O)CC2(C)C)C(C)(C)CCC1 [Compound 8, β-Cryptoxanthin succinate] : Not satisfied
5) CC1=C(/C=C/C(C)=C/C=C/C(C)=C/C=C/C=C(C)/C=C/C=C(C)/C=C/C(=O)[C@]2(C)C[C@@H](OC(=O)CCC(=O)O)CC2(C)C)C(C)(C)C[C@H](OC(=O)CCC(=O)O)C1 [Compound 9, Capsanthin bissuccinate] : Not satisfied
6) CC1=C(/C=C/C(C)=C/C=C/C(C)=C/C=C/C=C(C)/C=C/C=C(\C)COC(=O)CCC(=O)O)C(C)(C)CCC1 [Compound 6, 8′-Apo-β-carotenol succinate] : Satisfied
7) COc1ccc2[nH]cc(CCNC(=O)CNC(=O)CCC(=O)O[C@@H]3CC(C)=C(/C=C/C(C)=C/C=C/C(C)=C/C=C/C=C(C)/C=C/C=C(C)/C=C/C4=C(C)C[C@@H](OC(=O)CCC(=O)NCC(=O)NCCc5c[nH]c6ccc(OC)cc56)CC4(C)C)C(C)(C)C3)c2c1 [Compound 14, Zeaxanthin-bismelatonin conjugate] : Not satisfied
8) CC1=C(/C=C/C(C)=C/C=C/C(C)=C/C=C/C=C(C)/C=C/C=C(C)/C=C/C2=C(C)C[C@@H](OC(=O)CCC(=O)O)CC2(C)C)C(C)(C)C[C@H](OC(=O)CCC(=O)O)C1 [Compound 7, Zeaxanthin bissuccinate] : Not satisfied

###

# mean size (hydrodynamic diameter) annotations
# method notes: Hydrodynamic diameter and colloidal stability of aggregates by dynamic light scattering
# Type: physicochemical
# measurement parameters: 3.75 μM in PBS from DMSO stock, 37 °C
parameter: mean size (hydrodynamic diameter) (nm)

1) CC1=C(/C=C/C(C)=C/C=C/C(C)=C/C=C/C=C(C)/C=C/C=C(\C)COC(=O)CCC(=O)O)C(C)(C)CCC1 [Compound 6, 8′-Apo-β-carotenol succinate] : 152.60
2) CC1=C(/C=C/C(C)=C/C=C/C(C)=C/C=C/C=C(C)/C=C/C=C(C)/C=C/C2=C(C)C[C@@H](OC(=O)CCC(=O)O)CC2(C)C)C(C)(C)CCC1 [Compound 8, β-Cryptoxanthin succinate] : 468.90
3) COc1ccc2[nH]cc(CCNC(=O)CNC(=O)CCC(=O)O[C@@H]3CC(C)=C(/C=C/C(C)=C/C=C/C(C)=C/C=C/C=C(C)/C=C/C=C(C)/C=C/C4=C(C)C[C@@H](O)CC4(C)C)C(C)(C)C3)c2c1 [Compound 13, Zeaxanthin-monomelatonin conjugate] : 79.01
4) CC1=C(/C=C/C(C)=C/C=C/C(C)=C/C=C/C=C(C)/C=C/C=C(C)/C=C/C2=C(C)C[C@@H](OC(=O)CCC(=O)O)CC2(C)C)C(C)(C)C[C@H](O)C1 [Compound 11, Zeaxanthin monossuccinate] : 17.71
